Form field: DC50 (one value per entry).
- tested-system: B-RAF G466V (Homo sapiens, UniProt P15056, G466V)
- Construct: expressed in transfected cells; host or cells: T-Rex 293 cells (Invitrogen #R71007)
- Sequence (P15056 whole entry G466V): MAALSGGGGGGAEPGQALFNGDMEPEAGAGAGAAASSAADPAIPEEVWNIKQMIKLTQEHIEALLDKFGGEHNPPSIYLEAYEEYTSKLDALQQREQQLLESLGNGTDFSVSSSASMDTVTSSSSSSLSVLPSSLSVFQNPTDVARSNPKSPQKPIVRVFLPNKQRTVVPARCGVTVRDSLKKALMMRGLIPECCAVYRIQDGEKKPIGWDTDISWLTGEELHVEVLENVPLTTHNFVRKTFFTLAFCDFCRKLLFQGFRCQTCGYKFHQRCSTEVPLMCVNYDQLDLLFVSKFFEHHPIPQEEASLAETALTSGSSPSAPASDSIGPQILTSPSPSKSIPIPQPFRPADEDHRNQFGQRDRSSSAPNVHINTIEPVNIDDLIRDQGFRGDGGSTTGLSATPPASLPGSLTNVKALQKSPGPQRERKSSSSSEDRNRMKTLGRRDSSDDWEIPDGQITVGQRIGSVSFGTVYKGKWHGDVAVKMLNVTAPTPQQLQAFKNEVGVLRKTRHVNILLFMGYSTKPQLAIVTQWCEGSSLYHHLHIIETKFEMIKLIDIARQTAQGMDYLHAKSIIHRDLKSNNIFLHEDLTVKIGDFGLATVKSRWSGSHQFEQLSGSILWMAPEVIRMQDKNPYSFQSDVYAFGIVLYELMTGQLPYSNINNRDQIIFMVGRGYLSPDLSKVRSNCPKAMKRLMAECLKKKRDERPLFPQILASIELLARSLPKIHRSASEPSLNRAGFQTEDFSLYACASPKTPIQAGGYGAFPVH
- assay-explanation: Target protein degradation, assay D: T-Rex 293 cells, HA-BRAF_G466V, 384 well format
- Type: cell-based
- measurement-conditions: Assay D, T-Rex 293 HA-BRAF_G466V cells, 24 hours, Examples 83-269

Take a look at these entries with their results.
N#Cc1c(NS(=O)(=O)N2CC[C@@H](F)C2)ccc(F)c1Oc1ccc2ncn(-c3ccc(N4CCC(CN5CCC(c6ccc([C@H]7CCC(=O)NC7=O)cc6F)CC5)CC4)cc3)c(=O)c2c1 : 0.001 to 0.01 µM
CC(=O)N(CC1CCN(c2ccc(-n3cnc4ccc(Oc5c(F)ccc(NS(=O)(=O)N6CC[C@@H](F)C6)c5C#N)cc4c3=O)cc2)CC1)[C@H]1C[C@@H](Oc2ccc3c(c2)CN([C@H]2CCC(=O)NC2=O)C3=O)C1 : 0.01 to 0.03 µM

The compound identified as N#Cc1c(NS(=O)(=O)N2CC[C@@H](F)C2)ccc(F)c1Oc1ccc2ncn(-c3cnc(C4(N5CCN(CC6CCN(c7ccc(NC8CCC(=O)NC8=O)cc7F)CC6)CC5)CC4)nc3)c(=O)c2c1 (stereo partly drawn) registered its DC50 at > 0.03 µM

* * *

- tested-system: B-RAF V600E (Homo sapiens, UniProt P15056, V600E)
- Construct: expressed in transfected cells; host or cells: T-Rex 293 cells (Invitrogen #R71007)
- Sequence (P15056 whole entry V600E): as the sequence (P15056 whole entry G466V) above, with V466G, V600E counted along it
- assay-explanation: Target protein degradation, assay C: T-Rex 293 cells, HA-BRAF_V600E, 384 well format
- Type: cell-based
- measurement-conditions: Assay C, T-Rex 293 HA-BRAF_V600E cells, 24 hours, Examples 83-269
metric-name: DC50

Known results for compounds:
N#Cc1c(NS(=O)(=O)N2CC[C@@H](F)C2)ccc(F)c1Oc1ccc2ncn(-c3ccc(N4CCC(CN5CCC(Oc6cccc7c6C(=O)N(C6CCC(=O)NC6=O)C7=O)CC5)CC4)nc3)c(=O)c2c1 (stereo partly drawn) [Example 137] : > 500 nM
N#Cc1c(NS(=O)(=O)N2CC[C@@H](F)C2)ccc(F)c1Oc1ccc2ncn(-c3cnc(C4(N5CCN(CC6CN(c7ccc(NC8CCC(=O)NC8=O)cc7F)C6)CC5)CC4)nc3)c(=O)c2c1 (stereo partly drawn) [Example 108] : 5 to 50 nM
N#Cc1c(NS(=O)(=O)N2CC[C@@H](F)C2)ccc(F)c1Oc1ccc2ncn(-c3cccc(C4CCN(CC5CCN(c6ccc7c(c6)CN([C@H]6CCC(=O)NC6=O)C7=O)CC5)C4)c3)c(=O)c2c1 (single isomer, unassigned) [Example 257] : 50 to 500 nM
CN(c1ccc2c(c1)CN([C@H]1CCC(=O)NC1=O)C2=O)[C@H]1CC[C@@H](N2CCN(c3ccc(-n4cnc5ccc(Oc6c(F)ccc(NS(=O)(=O)N7CC[C@@H](F)C7)c6C#N)cc5c4=O)cc3)CC2)CC1 [Example 230] : 50 to 500 nM
N#Cc1c(NS(=O)(=O)N2CC[C@@H](F)C2)ccc(F)c1Oc1ccc2ncn(-c3ccc(N4CCC(CN5CCC6(CC5)CCN(c5ccc7c(c5)C(=O)N(C5CCC(=O)NC5=O)C7=O)CC6)CC4)nc3)c(=O)c2c1 (stereo partly drawn) [Example 146] : 5 to 50 nM

Measured DC50, N#Cc1c(NS(=O)(=O)N2CC[C@@H](F)C2)ccc(F)c1Oc1ccc2ncn(-c3cnc(N4CCC(CN5CC6(C5)CN(c5cccc7c5C(=O)N(C5CCC(=O)NC5=O)C7=O)C6)CC4)nc3)c(=O)c2c1 (stereo partly drawn) [Example 153] : 50 to 500 nM

Per the records, this compound ( N#Cc1c(NS(=O)(=O)N2CC[C@@H](F)C2)ccc(F)c1Oc1ccc2ncn(-c3cnc(N4CCC(CN5CCC6(CC5)CCN(c5ccc7c(c5)C(=O)N(C5CCC(=O)NC5=O)C7=O)CC6)CC4)nc3)c(=O)c2c1 (stereo partly drawn) [Example 129] ) has DC50 equal to 50 to 500 nM

The value of DC50 measured for the compound N#Cc1c(NS(=O)(=O)N2CC[C@@H](F)C2)ccc(F)c1Oc1ccc2ncn(-c3cnc(N4CCC(CN5CC6(CCN(c7ccc8c(c7)CN(C7CCC(=O)NC7=O)C8=O)CC6)C5)CC4)nc3)c(=O)c2c1 (stereo partly drawn) [Example 132] turned out to be 50 to 500 nM

For record N#Cc1c(NS(=O)(=O)N2CC[C@@H](F)C2)ccc(F)c1Oc1ccc2ncn(-c3ccc(N4CC(CN5CCN(C6CCN(c7ccc8c(c7)CN(C7CCC(=O)NC7=O)C8=O)CC6)CC5)C4)cc3)c(=O)c2c1 (single isomer, unassigned) [Example 197] the listed DC50 is 50 to 500 nM

* * *

- tested-system: B-RAF V600E (Homo sapiens, UniProt P15056, V600E)
- Construct: expressed in transfected cells; host or cells: T-Rex 293 cells (Invitrogen #R71007)
- assay-explanation: Target protein degradation, assay C: T-Rex 293 cells, HA-BRAF_V600E, 384 well format
- Format: cell-based
- measurement-conditions: T-REx-293, Assay C, T-Rex 293 HA-BRAF_V600E cells, 24 hours, Examples 83-269
// values below are reported Dmax

Cn1c(=O)n(C2CCC(=O)NC2=O)c2cccc(N3CCC(CN4CCN(c5ccc(-n6cnc7ccc(Oc8c(F)ccc(NS(=O)(=O)N9CC[C@@H](F)C9)c8C#N)cc7c6=O)cc5)CC4)CC3)c21 (stereo partly drawn) [Example 98] : 35 to 70%
N#Cc1c(NS(=O)(=O)N2CC[C@@H](F)C2)ccc(F)c1Oc1ccc2ncn(-c3ccc(C4CCN(CC5CN(c6ccc7c(c6)CN([C@H]6CCC(=O)NC6=O)C7=O)C5)CC4)cc3)c(=O)c2c1 [Example 256] : 35 to 70%

With those in mind, consider the next compound.
What the record says about N#Cc1c(NS(=O)(=O)N2CC[C@@H](F)C2)ccc(F)c1Oc1ccc2ncn(-c3cnc(C4(N5CCN(CC6CN(c7ccc(NC8CCC(=O)NC8=O)cc7F)C6)CC5)CC4)nc3)c(=O)c2c1 (stereo partly drawn) [Example 108] : Dmax is 35 to 70%

* * *

- tested-system: B-RAF G466V (Homo sapiens, UniProt P15056, G466V)
- Construct: expressed in transfected cells; host or cells: T-Rex 293 cells (Invitrogen #R71007)
- assay-explanation: Target protein degradation, assay D: T-Rex 293 cells, HA-BRAF_G466V, 384 well format
- Type: cell-based
- measurement-conditions: T-REx-293, Assay D, T-Rex 293 HA-BRAF_G466V cells, 24 hours, Examples 83-269
Listed here: items and their measured Dmax.

N#Cc1c(NS(=O)(=O)N2CC[C@@H](F)C2)ccc(F)c1Oc1ccc2ncn(-c3ccc(N4CCN(c5ccc(C(=O)NC6CCC(=O)NC6=O)c(F)c5)CC4)nc3)c(=O)c2c1 (stereo partly drawn) : ≤ 35%

Dmax recorded for this molecule, N#Cc1c(NS(=O)(=O)N2CC[C@@H](F)C2)ccc(F)c1Oc1ccc2ncn(-c3cnc(C4(N5CCN(CC6CCN(c7ccc8c(c7)CN(C7CCC(=O)NC7=O)C8=O)CC6)CC5)CC4)nc3)c(=O)c2c1 (stereo partly drawn) , is 35 to 70%

The molecule listed as N#Cc1c(NS(=O)(=O)N2CC[C@@H](F)C2)ccc(F)c1Oc1ccc2ncn(-c3ccc(N4CCN(CC5CCN(c6ccc7c(c6)CN([C@@H]6CCC(=O)NC6=O)C7=O)CC5)CC4)cc3)c(=O)c2c1 shows Dmax equal to 35 to 70%

* * *

- tested-system: B-RAF G466V (Homo sapiens, UniProt P15056, G466V)
- Construct: expressed in transfected cells; host or cells: T-Rex 293 cells (Invitrogen #R71007)
- assay-explanation: Target protein degradation, assay D: T-Rex 293 cells, HA-BRAF_G466V, 384 well format
- Assay type: cell-based
- measurement-conditions: T-REx-293, Assay D, T-Rex 293 HA-BRAF_G466V cells, 24 hours, Examples 83-269
- Method: D. T-Rex 293 Cells (384 Well Format) T-Rex 293 cells were purchased from Invitrogen (#R71007), and stably transfected with a pcDNA4/TO_HA-BRAF_G466V construct, using 400 ug Zeocin for selection. […] BRAF intensity is quantified in HCS Studio software (ThermoFisher), using a custom script, exported, analyzed using KNIME, and curve curation is performed in an ELN (Scilligence). Cell toxicity is measured via comparing number of nuclei in PROTAC treated wells to DMSO controls. […]
metric-name: Dmax

See these solved cases before continuing.
N#Cc1c(NS(=O)(=O)N2CC[C@@H](F)C2)ccc(F)c1Oc1ccc2ncn(C3COC4(CCN(C(=O)CC5(O)CCN(c6ccc7c(c6)CN([C@H]6CCC(=O)NC6=O)C7=O)CC5)CC4)C3)c(=O)c2c1 (stereo partly drawn) : 35 to 70%
N#Cc1c(NS(=O)(=O)N2CC[C@@H](F)C2)ccc(F)c1Oc1ccc2ncn(-c3ccc(C4CCCN(CC5CCN(c6ccc7c(c6)CN([C@H]6CCC(=O)NC6=O)C7=O)CC5)C4)cc3)c(=O)c2c1 (stereo partly drawn) : 35 to 70%

From here, focus on the item given below.
Form: molecule = N#Cc1c(NS(=O)(=O)N2CC[C@@H](F)C2)ccc(F)c1Oc1ccc2ncn(-c3cnc(N4CCC(CN5CCC6(CC5)CN(c5cccc7c5CN(C5CCC(=O)NC5=O)C7=O)C6)CC4)nc3)c(=O)c2c1 (stereo partly drawn) ; Dmax = ≤ 35%

Reference for the values: patent US11957759B1
